# measured_target: UniProtKB P14902
# Sequence (P14902 whole entry): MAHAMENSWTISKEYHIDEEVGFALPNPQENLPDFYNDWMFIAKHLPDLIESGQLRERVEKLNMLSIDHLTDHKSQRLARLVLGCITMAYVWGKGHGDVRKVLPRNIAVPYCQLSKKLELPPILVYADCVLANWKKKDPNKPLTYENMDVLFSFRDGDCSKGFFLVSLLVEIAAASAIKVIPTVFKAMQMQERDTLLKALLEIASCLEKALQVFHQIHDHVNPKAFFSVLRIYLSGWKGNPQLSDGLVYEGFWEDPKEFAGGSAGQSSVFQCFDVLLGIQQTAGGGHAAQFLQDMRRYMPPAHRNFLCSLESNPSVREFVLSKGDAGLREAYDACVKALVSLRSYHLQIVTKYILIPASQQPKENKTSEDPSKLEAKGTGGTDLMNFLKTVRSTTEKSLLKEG
# procedure_summary: Assessment of human IDO-1 inhibitory activity in Hela cells (Interferon-gamma activated, Ehrlich reagent, absorbance at 490 nm)
# Type: cell-based
# Parameters: endogenous in cells; host or cells: HeLa cells stimulated with interferon-gamma
# experimental_parameters: 18 hours
pIC50: −log10 of the molar value.
reported_property: pIC50

- CC(CC(=O)O)c1ccc(N2C[C@@H](C)O[C@@H](C)C2)c(NC(=O)Nc2ccc(C#N)cc2)c1 (single isomer, unassigned): < 7.30
- CCOc1ncc(Nc2cc(C(CC)CC(=O)O)c(F)cc2N(CC)C2CCOCC2)cn1 (single isomer, unassigned): > 8.30
- CCCN(c1ccc([C@@H](COC)CC(=O)O)cc1Nc1cnc(OCC2CC2)nc1)C1CCOCC1 (single isomer, unassigned): > 8.30
- CCC(CC(=O)O)c1cc(F)c(N(CC)C2CCOCC2)c(Nc2ccc(Cl)cc2)c1 (single isomer, unassigned): > 8.30

### Prompt Given the molecule CCC(CC(=O)O)c1ccc(N(CC)C2CCOC2)c(NC(=O)Nc2ccc(Cl)cc2F)c1 (single isomer, unassigned) [948 D1] , what is its reported pIC50?
### Response > 7.30

### Prompt Moving on to CCC(CC(=O)O)c1cc(Nc2cnc(OCC3CC3)nc2)c(N(CC)C2CCOCC2)cc1F (single isomer, unassigned)
### Response > 8.30

### Prompt Moving on to COCC(CC(=O)OC)c1ccc(N(CC(F)F)C2CCOCC2)c(Nc2ccc(Cl)cc2)c1 (stereo not shown) [Example 319]
### Response > 8.30

### Prompt Moving on to "CCN(c1ccc([C@H](COC)CC(=O)O)cc1Nc1cccc(OC(F)(F)C(F)F)c1)C1CCOCC1"
### Response > 8.30

### Prompt Moving on to CCOc1ncc(Nc2cc(C(CC(=O)O)C3CC3)ccc2N(CC)C2CCOCC2)cn1 (single isomer, unassigned)
### Response > 7.30

### Prompt Moving on to CCN(c1c(F)cc(C(COC)CC(=O)O)cc1NC(=O)Nc1ccc(Cl)cc1F)C1CCOCC1 (single isomer, unassigned)
### Response < 7.30

### Prompt Moving on to CCC(CC(=O)O)c1ccc(N(CC)C2CCOC2)c(NC(=O)Nc2ccc(Cl)cc2F)c1 (single isomer, unassigned) [948 D2]
### Response > 7.30

### Prompt Moving on to COCC(CC(=O)O)c1ccc(N2CCC(c3ccccc3)CC2)c(Nc2ccc(C#N)cc2)c1 (single isomer, unassigned) [Example 1350 E2]
### Response > 8.30

### Prompt Moving on to COCC(CC(=O)O)c1ccc(N2CCOC(C)(C)C2)c(Nc2ccc(C#N)cc2)c1 (single isomer, unassigned)
### Response < 7.30
